Reported hERG current change (%, negative = inhibition) at 10uM values for a set of compounds
# subject-of-test: human ether-à-go-go-related gene (hERG) potassium channel (human, UniProt Q12809)
# Sequence (Q12809 whole entry, looked up): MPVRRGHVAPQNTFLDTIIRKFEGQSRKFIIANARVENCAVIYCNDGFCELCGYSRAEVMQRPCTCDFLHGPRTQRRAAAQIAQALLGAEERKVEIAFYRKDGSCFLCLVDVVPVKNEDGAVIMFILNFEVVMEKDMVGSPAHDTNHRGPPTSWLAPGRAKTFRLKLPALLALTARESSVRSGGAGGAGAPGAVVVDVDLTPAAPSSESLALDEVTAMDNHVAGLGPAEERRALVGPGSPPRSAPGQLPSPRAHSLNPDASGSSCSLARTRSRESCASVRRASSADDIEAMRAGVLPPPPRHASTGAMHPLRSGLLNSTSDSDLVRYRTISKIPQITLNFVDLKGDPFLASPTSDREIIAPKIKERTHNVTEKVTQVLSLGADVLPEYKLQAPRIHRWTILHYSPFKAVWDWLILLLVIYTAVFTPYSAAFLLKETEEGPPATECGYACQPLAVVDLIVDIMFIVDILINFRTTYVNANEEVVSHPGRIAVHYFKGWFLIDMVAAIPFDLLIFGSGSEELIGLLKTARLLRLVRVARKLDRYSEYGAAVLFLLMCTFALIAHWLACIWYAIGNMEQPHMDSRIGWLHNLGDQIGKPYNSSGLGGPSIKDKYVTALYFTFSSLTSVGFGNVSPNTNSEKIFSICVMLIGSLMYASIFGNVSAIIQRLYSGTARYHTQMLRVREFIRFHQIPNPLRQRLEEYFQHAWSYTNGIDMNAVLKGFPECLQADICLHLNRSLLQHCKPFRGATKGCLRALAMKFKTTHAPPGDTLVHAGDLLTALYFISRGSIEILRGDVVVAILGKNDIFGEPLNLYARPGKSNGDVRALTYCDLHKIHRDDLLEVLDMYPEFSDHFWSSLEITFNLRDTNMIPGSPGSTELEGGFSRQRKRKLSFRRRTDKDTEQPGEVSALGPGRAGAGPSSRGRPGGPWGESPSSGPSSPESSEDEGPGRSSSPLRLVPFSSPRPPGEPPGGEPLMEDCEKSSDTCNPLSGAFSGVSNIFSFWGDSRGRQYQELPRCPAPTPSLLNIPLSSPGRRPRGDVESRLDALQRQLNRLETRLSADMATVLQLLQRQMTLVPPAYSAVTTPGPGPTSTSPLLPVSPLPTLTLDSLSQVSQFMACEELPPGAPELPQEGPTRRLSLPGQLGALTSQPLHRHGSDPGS
# protocol-summary: primary screen, population patch clamp on CHO cells stably expressing hERG; higher = less effect of the substance;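 further: peak tail current of the secondary pulse compared with the same well before compound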
# Description: Briefly, Chinese hamster ovary (CHO) cells stably expressing the hERG channel were dislodged from tissue culture flasks and dispensed into PPC plates. […] During the recording, background leak currents were estimated by a 100 ms step to -80 mV from an initial holding potential of -70 mV and subtracted from the subsequent current measurement. The campaign was conducted in two phases using slight differences in recording protocol. […]
Out of some 310,000 compounds screened, about 14,000 (4.5%) showed an effect of 50% or more. Effects have a minus sign here. Many of the other results were omitted from the sample, so strong results are more common in it than they were.
Your answer should be a plain number; it is taken to be in %.

Completed entries (count: 3):
structure-smiles-string: O=C(NCc1cccnc1)Nc1ccc2c(c1)OCO2
units-label: %
recorded-value: -7.04
//
structure-smiles-string: Nc1c(Cl)cc(C(=O)c2c3ccc(C(F)(F)F)cc3[n+]([O-])n2CCC[NH3+])cc1Cl.[Cl-]
units-label: %
recorded-value: -57.6
//
structure-smiles-string: Nc1c(Cl)cc(C(=O)c2c3ccccc3[n+]([O-])n2CCC[NH3+])cc1Cl.[Cl-]
units-label: %
recorded-value: -20.9

Turning to the following compound.
[ask] Would you kindly share the measured hERG current change (%, negative = inhibition) at 10uM for `Cc1ccc(C(=O)c2c3ccc([N+](=O)[O-])cc3[n+]([O-])n2CCC(N)=O)cc1` ?
[reply] -32.6

* * *

# subject-of-test: human ether-à-go-go-related gene (hERG) potassium channel (human)
# protocol-summary: primary screen, population patch clamp on CHO cells stably expressing hERG; higher = less effect of the substance
The campaign covered roughly 310,000 compounds. About 14,000 (4.5%) showed an effect of 50% or more. Effects have a minus sign here. What follows is part of a selection rich in strong results, with near analogues and random picks from the rest.
Reported hERG current change (%, negative = inhibition) at 10uM values for a set of compounds
Give the value; after it, write the unit.

[ask] Would you kindly share the measured hERG current change (%, negative = inhibition) at 10uM for `COc1ccc(OCC(=O)N2CCN(C(=O)c3cccs3)CC2)cc1` ?
[reply] -43.3%

[ask] Would you kindly share the measured hERG current change (%, negative = inhibition) at 10uM for `O=C(COc1ccccc1Br)N1CCN(C(=O)c2cccs2)CC1` ?
[reply] -32.2%

[ask] Would you kindly share the measured hERG current change (%, negative = inhibition) at 10uM for `C=CCNc1nc(Nc2ccc([N+](=O)[O-])cc2)nc(N2CCCC2)n1` ?
[reply] -23.8%

[ask] Would you kindly share the measured hERG current change (%, negative = inhibition) at 10uM for `Cc1ccc(OCC(=O)N2CCN(C(=O)c3cccs3)CC2)cc1` ?
[reply] -34.8%

[ask] Would you kindly share the measured hERG current change (%, negative = inhibition) at 10uM for `O=C(COc1ccc(-c2ccccc2)cc1)N1CCN(C(=O)c2cccs2)CC1` ?
[reply] -41.8%

[ask] Would you kindly share the measured hERG current change (%, negative = inhibition) at 10uM for `O=C(CSc1cccc2cccnc12)N1CCCC1` ?
[reply] 12%

[ask] Would you kindly share the measured hERG current change (%, negative = inhibition) at 10uM for O=C(NC1CCCc2ccccc21)c1cncc(Br)c1 (stereo not shown) ?
[reply] 8.69%

[ask] Would you kindly share the measured hERG current change (%, negative = inhibition) at 10uM for `O=C(COc1ccccc1)N1CCN(C(=O)c2cccs2)CC1` ?
[reply] -13.4%

[ask] Would you kindly share the measured hERG current change (%, negative = inhibition) at 10uM for `CCOc1cc(C#N)ccc1OCC(=O)N1CCN(C(=O)c2cccs2)CC1` ?
[reply] -67.7%

[ask] Would you kindly share the measured hERG current change (%, negative = inhibition) at 10uM for `O=C(COc1ccc(Cl)cc1)N1CCN(C(=O)c2cccs2)CC1` ?
[reply] -74.5%

* * *

# subject-of-test: human ether-à-go-go-related gene (hERG) potassium channel (human, UniProt Q12809)
# protocol-summary: primary screen, population patch clamp on CHO cells stably expressing hERG; higher = less effect of the substance
Hit rate of the full screen: of about 310,000 compounds, about 14,000 (4.5%) showed an effect of 50% or more. The effect is printed as a negative number. This is one part of a sample in which strong results are shown more often than they occur.
quantity: hERG current change (%, negative = inhibition) at 10uM (%)
Your answer should be a plain number; it is taken to be in %.

Completed entries (count: 2):
molecule: COc1ccc(C)cc1Nc1n[n+](-c2ccccc2)c(-c2c(OC)ccc3ccccc23)s1.[Cl-]
recorded-value: -53.8

molecule: O=C(NNC(=S)NCc1ccc(Cl)cc1)c1ccc2c(c1)OCO2
recorded-value: 6.73

[ask] Would you kindly share the measured hERG current change (%, negative = inhibition) at 10uM for `COc1ccc(C)cc1Nc1n[n+](-c2ccccc2)c(-c2cc([N+](=O)[O-])cc(OC)c2O)s1.[Cl-]` ?
[reply] 6.15

[ask] Would you kindly share the measured hERG current change (%, negative = inhibition) at 10uM for CC1CCC(C)(NS(=O)(=O)OCC(Cl)(Cl)Cl)CC1 (stereo not drawn) ?
[reply] -21.7

[ask] Would you kindly share the measured hERG current change (%, negative = inhibition) at 10uM for CCN(C1CCS(=O)(=O)C1)S(=O)(=O)c1ccc2ccccc2c1 (stereo not drawn) ?
[reply] -10.5

[ask] Would you kindly share the measured hERG current change (%, negative = inhibition) at 10uM for `CC1=Nc2cc(C(=O)N3CCCC3)ccc2Sc2c(C)ccc(C)c21` ?
[reply] -19.5

[ask] Would you kindly share the measured hERG current change (%, negative = inhibition) at 10uM for `COc1ccc(C(=O)NCCc2nnc3ccc(SCC(=O)NCCc4ccc(OC)c(OC)c4)nn23)cc1` ?
[reply] 0.371

[ask] Would you kindly share the measured hERG current change (%, negative = inhibition) at 10uM for COc1ccc(C2NC(=O)C(C#N)=C(S)N2c2ccc(C)cc2)cc1OC (stereo not drawn) ?
[reply] 18.2

[ask] Would you kindly share the measured hERG current change (%, negative = inhibition) at 10uM for `CC(C)C[C@H](NC(=O)c1nc[nH]c1C(=O)N1CC[NH2+]CC1)C(=O)OCc1ccccc1.[Cl-]` ?
[reply] 20.5

* * *

# subject-of-test: human ether-à-go-go-related gene (hERG) potassium channel (human, UniProt Q12809)
# protocol-summary: primary screen, population patch clamp on CHO cells stably expressing hERG; higher = less effect of the substance
Hit rate of the full screen: of about 310,000 compounds, about 14,000 (4.5%) showed an effect of 50% or more. The effect is printed as a negative number. The list comes from a sample in which strong results are over-represented; it also holds close analogues and randomly drawn compounds.
Reported hERG current change (%, negative = inhibition) at 10uM values for a set of molecules
Your answer should be a plain number; it is taken to be in %.

Completed entries (count: 5):
molecule: O=C(CSc1nnnn1C1CCCC1)Nc1cccc(NC(=O)c2ccco2)c1
subject-of-test: human ether-à-go-go-related gene (hERG) potassium channel (human, UniProt Q12809)
recorded-value: -55.9
//
molecule: Cn1c(Cn2nnc3ccccc32)nnc1SCC(=O)N1c2ccccc2CCc2ccccc21
subject-of-test: human ether-à-go-go-related gene (hERG) potassium channel (human, UniProt Q12809)
recorded-value: -23.6
//
molecule: O=C(CCCCCNC(=O)N1CCn2c1nc1ccccc12)NCCc1ccccc1
subject-of-test: human ether-à-go-go-related gene (hERG) potassium channel (human, UniProt Q12809)
recorded-value: 9.42
//
molecule: CC(=O)c1ccc(-n2nnnc2SCC(=O)Nc2cccc(NC(=O)c3ccco3)c2)cc1
subject-of-test: human ether-à-go-go-related gene (hERG) potassium channel (human, UniProt Q12809)
recorded-value: 6.89
//
molecule: Cc1ccc(-n2nnnc2SCC(=O)Nc2ccc(N3CCN(C)CC3)cc2)c(C)c1
subject-of-test: human ether-à-go-go-related gene (hERG) potassium channel (human, UniProt Q12809)
recorded-value: -21

[ask] Would you kindly share the measured hERG current change (%, negative = inhibition) at 10uM for `Cc1ccc(-n2nnnc2SCC(=O)Nc2cccc(NC(=O)c3ccco3)c2)cc1C` ?
[reply] -6.49

[ask] Would you kindly share the measured hERG current change (%, negative = inhibition) at 10uM for `Cc1cccc(-n2nnnc2SCC(=O)Nc2ccc(N3CCN(C)CC3)cc2)c1` ?
[reply] -55

[ask] Would you kindly share the measured hERG current change (%, negative = inhibition) at 10uM for C=CCN1C(=O)C(Cc2ccccc2)SC1=Nc1ccc(C(=O)O)cc1 (stereo not drawn) ?
[reply] -3.37

[ask] Would you kindly share the measured hERG current change (%, negative = inhibition) at 10uM for `COc1ccc(CNC(=O)CCc2nnc3ccc(N4CCC5(CC4)OCCO5)nn23)cc1` ?
[reply] 15.1
